- targetOrSystem: T1, human pIgR extracellular domain (ECD) (human, UniProt P01833 19-638)
- T1 construct: also called hpIgR ECD
- T1 sequence (P01833 other isoform, or with tags, fused parts or gaps): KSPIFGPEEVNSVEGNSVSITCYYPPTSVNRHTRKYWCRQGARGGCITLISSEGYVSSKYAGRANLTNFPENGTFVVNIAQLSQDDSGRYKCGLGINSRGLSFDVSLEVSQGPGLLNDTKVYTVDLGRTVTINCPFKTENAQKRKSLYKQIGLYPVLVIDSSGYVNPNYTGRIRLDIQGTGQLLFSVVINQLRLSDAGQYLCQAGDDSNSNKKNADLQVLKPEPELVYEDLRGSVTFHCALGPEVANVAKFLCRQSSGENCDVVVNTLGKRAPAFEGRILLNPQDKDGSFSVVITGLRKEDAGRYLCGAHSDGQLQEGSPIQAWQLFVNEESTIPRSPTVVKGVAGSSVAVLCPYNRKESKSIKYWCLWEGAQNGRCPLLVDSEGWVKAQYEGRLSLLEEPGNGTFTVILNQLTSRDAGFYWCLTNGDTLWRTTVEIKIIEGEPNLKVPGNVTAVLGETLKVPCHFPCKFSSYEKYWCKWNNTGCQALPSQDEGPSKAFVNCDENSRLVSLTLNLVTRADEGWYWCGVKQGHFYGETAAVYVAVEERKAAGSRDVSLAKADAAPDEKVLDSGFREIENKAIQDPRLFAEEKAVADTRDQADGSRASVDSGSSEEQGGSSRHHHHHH
- measurementProtocol: ECL (MSD), hpIgR-ECD coated, anti-Fc detection
measurementName: EC50 (nM)
Quick note: give the figure in nM, leave out the unit.

VHH7-linker-mono-Fc protein (Fc fusion, made in CHO cells; also called VHH7-mono-Fc; hpIgR_198) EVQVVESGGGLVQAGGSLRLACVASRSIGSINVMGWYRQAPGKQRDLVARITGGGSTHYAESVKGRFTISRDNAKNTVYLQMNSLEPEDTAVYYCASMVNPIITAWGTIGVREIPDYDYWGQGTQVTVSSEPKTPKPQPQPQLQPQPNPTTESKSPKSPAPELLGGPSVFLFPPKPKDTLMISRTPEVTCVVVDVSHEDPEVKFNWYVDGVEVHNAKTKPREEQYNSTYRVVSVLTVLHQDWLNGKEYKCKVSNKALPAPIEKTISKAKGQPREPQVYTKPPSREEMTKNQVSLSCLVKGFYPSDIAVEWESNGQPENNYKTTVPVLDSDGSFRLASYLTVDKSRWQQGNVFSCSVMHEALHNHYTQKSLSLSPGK :: 12.4

Consider the record given below.
EC50 in this record for VHH4-linker-mono-Fc protein (Fc fusion, also called VHH4-mono-Fc; hpIgR_073) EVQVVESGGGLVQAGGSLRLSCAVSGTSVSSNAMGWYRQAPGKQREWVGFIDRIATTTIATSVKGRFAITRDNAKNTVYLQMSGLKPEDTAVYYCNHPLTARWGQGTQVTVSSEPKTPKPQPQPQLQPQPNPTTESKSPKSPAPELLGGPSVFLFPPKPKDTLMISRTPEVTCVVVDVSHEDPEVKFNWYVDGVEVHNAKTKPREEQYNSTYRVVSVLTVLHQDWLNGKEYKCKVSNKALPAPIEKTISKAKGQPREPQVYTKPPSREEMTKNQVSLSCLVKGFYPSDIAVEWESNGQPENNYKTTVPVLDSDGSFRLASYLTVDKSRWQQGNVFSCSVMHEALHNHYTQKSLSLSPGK : 1.1

All values here come from patent US20220324970A1.
